Data origin, for the record: patent US20260152557A1

Molecular target: T1, cynomolgus CD3 on HSC-F cells (cynomolgus, UniProt Q95LI5 22-198)
T1 construct: whole, on cells; also called Cyno HSC-F; cynomolgus HSC-F cells
T1 sequence (Q95LI5 22-198): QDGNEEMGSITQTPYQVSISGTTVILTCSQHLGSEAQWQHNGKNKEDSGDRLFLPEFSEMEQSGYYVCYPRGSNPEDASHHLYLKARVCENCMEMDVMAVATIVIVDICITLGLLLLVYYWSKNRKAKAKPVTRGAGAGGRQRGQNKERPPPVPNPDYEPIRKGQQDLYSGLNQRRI
Experiment: flow cytometry, yeast-produced IgG 100 nM on HSC-F cells, pH 7.4
Protocol: Anti-CD3 antibodies Antibody Nos. 1-13 were produced as aglycosylated IgGs comprising a IgG1 Fc region in yeast cells. Binding to human or cynomolgus CD3-expressing cells (human CD3+ Jurkat cells or cynomolgus HSC-F cells, respectively) at pH 7.4 and pH 6.0 were measured by fluorescence-activated single cell sorting (FACS). Normalized cell binding (NCB) values were calculated based on median fluorescence intensity (MFI) values, CD3 negative Jurkat cells were used as a negative control. […]
# NCB values compiled below
No unit in the answer, please; the number alone is enough.

Illustrative cases are given below, each with its answer.
>  <binder>
ADI-74965 (Antibody No. 3), human IgG1 (antibody, V domains shown, Tested as human IgG1 (yeast-produced aglycosylated, or CHO-produced)) VH: QVQLVQSGAEVKKPGASVKVSCKASGFNIKDYYMHWVRQAPGQRLEWMGWIDLENANTIYDAKFQGRVTITRDTSASTAYMELSSLRSEDTAVYYCARDAYHRYFYDVWGQGTLVTVSS VL: DIVMTQSPDSLAVSLGERATINCKSSQSLLNARTGHNYLAWYQQKPGQPPKLLIYWASTRESGVPDRFSGSGSGTDFTLTISSLQAEDVAVYYCKQSHSHRTFGGGTKVEIK

>  <NCB>
74

$$$$
>  <binder>
ADI-48587 (Antibody No. 2), human IgG1 (antibody, V domains shown, Tested as human IgG1 (yeast-produced aglycosylated, or CHO-produced); also called Ab No. 2; parent pH-dependent antibody) VH: QVQLVQSGAEVKKPGASVKVSCKASGFNIKDYYMHWVRQAPGQRLEWMGWIDLENANTIYDAKFQGRVTITRDTSASTAYMELSSLRSEDTAVYYCARDHYHRYFYDVWGQGTLVTVSS VL: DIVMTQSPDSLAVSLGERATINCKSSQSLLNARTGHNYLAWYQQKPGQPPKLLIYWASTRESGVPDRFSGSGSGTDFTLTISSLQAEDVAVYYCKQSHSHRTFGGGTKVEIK

>  <NCB>
0

$$$$
>  <binder>
ADI-74966 (Antibody No. 4), human IgG1 (antibody, V domains shown, Tested as human IgG1 (yeast-produced aglycosylated, or CHO-produced)) VH: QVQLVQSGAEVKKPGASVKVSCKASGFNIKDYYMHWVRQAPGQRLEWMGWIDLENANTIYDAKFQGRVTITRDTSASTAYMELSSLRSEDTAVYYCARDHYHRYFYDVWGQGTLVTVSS VL: DIVMTQSPDSLAVSLGERATINCKSSQSLLNARTGHNYLAWYQQKPGQPPKLLIYWASTRESGVPDRFSGSGSGTDFTLTISSLQAEDVAVYYCKQSYSHRTFGGGTKVEIK

>  <NCB>
0

$$$$

The binder listed as ADI-79846 (Antibody No. 12), human IgG1 (antibody, V domains shown, Tested as yeast-produced aglycosylated human IgG1) VH: QVQLVQSGAEVKKPGASVKVSCKASGFNIKDYYMHWVRQAPGQRLEWMGWIDLENANTIYDAKFQGRVTITRDTSASTAYMGLSSLRSEDTAVYYCARDHYGRYFYDVWGQGTLVTVSS VL: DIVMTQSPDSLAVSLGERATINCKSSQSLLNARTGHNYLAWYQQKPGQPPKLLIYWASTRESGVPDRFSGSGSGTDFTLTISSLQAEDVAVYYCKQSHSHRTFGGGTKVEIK has a reported NCB of 2
